- Protocol Text: In vivo pharmacokinetics, mouse
- Parameters: species or system CD-1 mice
- Stated Conditions: male, CD-1, plasma, PO 1-5 mg/kg, read-out: Oral Bioavailability (F %)
Outcome Measure: bioavailability (%)

Below are worked cases with known answers.
CC(C)[C@H]1CN(C)CCN1Cc1cc2c(c(C(F)(F)F)c1)CN(c1cccc(C3([C@@H](F)c4nncn4C)CC(F)(F)C3)c1)C2=O | 21
Cn1cnnc1[C@H](F)C1(c2cccc(N3Cc4c(cc(CN5CCC5)cc4C(F)(F)F)C3=O)c2)COC1 | 2

[1] CC(C)[C@H]1CN(C)CCN1Cc1cc2c(c(C(F)(F)F)c1)CN(c1cccc(C3([C@@H](F)c4nncn4C)COC3)c1)C2=O
[2] Cn1cnnc1[C@H](F)C1(c2cccc(N3Cc4c(cc(CN5CC6CC5C6)cc4C(F)(F)F)C3=O)c2)COC1
Given the listed records, identify the one among 1 and 2 with higher bioavailability. Your answer should be the label of the entry you select.
1
(1: 13%, 2: 2%)

---

Measured (fold-selectivity) values are reported for all entries that follow.
- Assayed Target: c-Cbl (Homo sapiens (Human), UniProt P22681)
- Sequence (P22681 47-435): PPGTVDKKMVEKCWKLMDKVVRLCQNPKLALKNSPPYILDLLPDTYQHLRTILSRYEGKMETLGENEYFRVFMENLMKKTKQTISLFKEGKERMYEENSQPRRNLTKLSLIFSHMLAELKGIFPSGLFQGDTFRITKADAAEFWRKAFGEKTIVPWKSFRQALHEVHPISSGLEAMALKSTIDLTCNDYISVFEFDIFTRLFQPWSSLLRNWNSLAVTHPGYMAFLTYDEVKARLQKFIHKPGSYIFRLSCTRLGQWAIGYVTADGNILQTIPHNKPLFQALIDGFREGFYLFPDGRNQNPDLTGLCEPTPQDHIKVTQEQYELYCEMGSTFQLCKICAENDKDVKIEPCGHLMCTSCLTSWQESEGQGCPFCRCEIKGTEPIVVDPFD
- Protocol Text: C-Cbl LCK Ub TR-FRET assay (c-cbl Lck HTRF)
- Type: biochemical
- Stated Conditions: C-cbl Lck HTRF IC50 relative to Cbl-b Lck HTRF IC50

CO[C@@H]1CCN(Cc2cc3c(c(C(F)(F)F)c2)CN(c2cccc(C4([C@H](F)c5nncn5C)COC4)c2)C3=O)C1 | 2.4x

What does the data say about its (fold-selectivity)? Entry: Cn1cnnc1[C@@H](F)C1(c2cccc(N3Cc4c(cc(CN5CCC[C@@H](CO)C5)cc4C(F)(F)F)C3=O)c2)COC1
1.3x

---

- Assayed Target: c-Cbl (Homo sapiens (Human))
- Protocol Text: C-Cbl LCK Ub TR-FRET assay (c-cbl Lck HTRF)
- Format: biochemical
Outcome Measure: IC50 (nM)

[I] CN1CCN(Cc2cc3c(c(C(F)(F)F)c2)CN(c2cccc(C4(Cc5nncn5C)CC(F)(F)C4)c2)C3=O)CC1 [Compound 411]
[II] Cn1cnnc1CC1(c2cc(OC3CCCC3)cc(N3Cc4c(cc(CNC5(C)CCC5)cc4C(F)(F)F)C3=O)c2)COC1 [Compound 479]
[III] CC[C@H]1CN(C)CCN1Cc1cc2c(c(C(F)(F)F)c1)CN(c1cccc(C3(Cc4nncn4C)CC(F)(F)C3)c1)C2=O [Compound 434]
[IV] Cn1cnnc1CC1(c2cccc(N3Cc4c(cc(CNC5CCCC5)cc4C(F)(F)F)C3=O)c2)CC(F)(F)C1 [Compound 364]
Rank the items in ascending order with respect to IC50. Response format: the labels, sorted as the prompt asks.
IV, III, I, II

---

- Assayed Target: c-Cbl (Homo sapiens (Human), UniProt P22681)
- Protocol Text: C-Cbl LCK Ub TR-FRET assay (c-cbl Lck HTRF)
- Assay type: biochemical
- Stated Conditions: C-cbl Lck HTRF IC50 relative to Cbl-b Lck HTRF IC50
Outcome Measure: (fold-selectivity)

Below are worked cases with known answers.
Cn1cnnc1[C@@H](F)C1(c2cccc(N3Cc4c(cc(CN)cc4C(F)(F)F)C3=O)c2)COC1 [Compound 69] | 1.6x
CC(C)[C@H]1CN(S(C)(=O)=O)CCN1Cc1cc2c(c(C(F)(F)F)c1)CN(c1cccc(C3([C@@H](F)c4nncn4C)COC3)c1)C2=O [Compound 195] | 2.0x
Cn1cnnc1[C@@H](F)C1(c2cccc(N3Cc4c(cc(CC5CNC5)cc4C(F)(F)F)C3=O)c2)COC1 [Compound 58] | 1.8x
Cn1cnnc1CC1(c2ccnc(N3Cc4c(cc(CNC5(C)CCC5)cc4C(F)(F)F)C3=O)c2)CCC1 [Compound 326] | (1.1x)

What does the data say about its (fold-selectivity)? Entry: CCOc1cc(N2Cc3c(cc(CNC4(C)CCC4)cc3C(F)(F)F)C2=O)cc(C2(Cc3nncn3C)COC2)c1 [Compound 473]
(1.2x)

What does the data say about its (fold-selectivity)? Entry: CC(C)[C@H]1CN(S(C)(=O)=O)CCN1Cc1cc2c(c(C(F)(F)F)c1)CN(c1cccc(C3([C@H](F)c4nncn4C)COC3)c1)C2=O [Compound 196]
2.8x

What does the data say about its (fold-selectivity)? Entry: CC(C)[C@H]1CN(C)CCN1Cc1cc2c(c(C(F)(F)F)c1)CN(c1cccc(C3([C@@H](F)c4nc(F)cn4C)COC3)c1)C2=O [Compound 269]
(2.3x)

What does the data say about its (fold-selectivity)? Entry: CC(C)[C@H]1CN(C)CCN1Cc1cc2c(c(C(F)(F)F)c1)CN(c1cccc(C3(Cc4nncn4C)CC(F)(F)C3)c1)C2=O [Compound 215]
0.66x

What does the data say about its (fold-selectivity)? Entry: Cn1cnnc1CC1(c2cccc(N3Cc4c(cc(CNC(C)(C)C)cc4C(F)(F)F)C3=O)c2)CC(F)(F)C1 [Compound 283]
(1.1x)

What does the data say about its (fold-selectivity)? Entry: Cn1cnnc1[C@@H](F)[C@](C)(F)c1cccc(N2Cc3c(cc(CN4CC(C)(F)C4)cc3C(F)(F)F)C2=O)c1 [Compound 34]
2.0x

What does the data say about its (fold-selectivity)? Entry: CC(C)[C@@H]1CNCCN1Cc1cc2c(c(C(F)(F)F)c1)CN(c1cccc(C3([C@@H](F)c4nncn4C)COC3)c1)C2=O [Compound 94]
1.1x

What does the data say about its (fold-selectivity)? Entry: Cn1cnnc1CC1(c2cc(NCC(N)=O)nc(N3Cc4c(cccc4C(F)(F)F)C3=O)c2)COC1 [Compound 491]
(2.3x)

What does the data say about its (fold-selectivity)? Entry: Cn1cnnc1[C@@H](F)C1(c2cccc(N3Cc4c(cc(CN5CC6(CCC6)C5)cc4C(F)(F)F)C3=O)c2)COC1 [Compound 166]
1.8x

What does the data say about its (fold-selectivity)? Entry: Cn1cnnc1[C@H](F)C1(c2cccc(N3Cc4c(cc(CN5CC(C)(O)C5)cc4C(F)(F)F)C3=O)c2)CC(F)(F)C1 [Compound 51]
2.4x

What does the data say about its (fold-selectivity)? Entry: Cn1cnnc1CC1(c2cc(NCCc3c[nH]c4ccccc34)nc(N3Cc4c(cc(CNC5(C)CCC5)cc4C(F)(F)F)C3=O)c2)CCC1 [Compound 316]
(1.2x)

What does the data say about its (fold-selectivity)? Entry: Cn1cnnc1[C@H](F)C1(c2cccc(N3Cc4c(cc(Oc5cn[nH]c5)cc4C(F)(F)F)C3=O)c2)COC1 [Compound 116]
1.1x
